# Tested on: A549 cells
# assay_info: Cellular proliferation/cytotoxicity assay (Alamar Blue), A549 cells
# run_parameters: read-out: Anti-proliferative/Cytotoxic activity (A549 cells); A549 cells, 72 h, Alamar Blue (Resazurin)
Entries annotated with measured IC50
outcome_measure: IC50

Cc1ccc2nc(-c3ccc(CN4CCC(c5nnc(-c6ncccn6)[nH]5)CC4)cc3)c(-c3ccccc3)n2n1 [Example 83]    > 10 µM
c1ccc(-c2c(-c3ccc(CN4CCC(c5nnc(-c6ncccn6)[nH]5)CC4)cc3)nc3scnn23)cc1 [Example 82]    < 10 µM
N#Cc1ccn2c(-c3ccccc3)c(-c3ccc(CN4CCC(c5nnc(-c6ccccn6)[nH]5)CC4)cc3)nc2c1 [Example 114]    < 10 µM
Cc1ccc(-c2nnc(C3CCN(Cc4ccc(-c5nc6ncccn6c5-c5ccccc5)cc4)CC3)[nH]2)nc1 [Example 70]    < 10 µM
N#Cc1ccn2c(-c3ccccc3)c(-c3ccc(CN4CCC(c5nnc(-c6ccco6)[nH]5)CC4)cc3)nc2c1 [Example 96]    < 10 µM
c1ccc(-c2c(-c3ccc(CN4CCC(c5nnc(-c6ccncc6)[nH]5)CC4)cc3)nc3ccccn23)cc1 [Example 58]    < 10 µM
c1ccc(-c2c(-c3ccc(CN4CCC(c5nnc(-c6ccco6)[nH]5)CC4)cc3)nc3ncccn23)cc1 [Example 95]    > 10 µM
c1ccc(-c2c(-c3ccc(CN4CCC(c5nnc(-c6ccncc6)[nH]5)CC4)cc3)nc3sccn23)cc1 [Example 56]    < 10 µM
c1ccc(-c2c(-c3ccc(CN4CCC(c5nnc(-c6ccc[nH]6)[nH]5)CC4)cc3)nc3ncccn23)cc1 [Example 106]    > 10 µM
Cc1ccc(-c2nnc(C3CCN(Cc4ccc(-c5nc6scnn6c5-c5ccccc5)cc4)CC3)[nH]2)nc1 [Example 74]    < 10 µM
N#Cc1ccn2c(-c3ccccc3)c(-c3ccc(CN4CCC(c5nc(-c6ccncc6)n[nH]5)CC4)cc3)nc2c1 [Example 57]    < 10 µM
c1ccc(-c2c(-c3ccc(CN4CCC(c5nnc(-c6ccco6)[nH]5)CC4)cc3)nc3sccn23)cc1 [Example 93]    < 10 µM
Clc1ccn2c(-c3ccccc3)c(-c3ccc(CN4CCC(c5nnc(-c6ccc[nH]6)[nH]5)CC4)cc3)nc2c1 [Example 107]    < 10 µM
c1ccc(-c2c(-c3ccc(CN4CCC(c5nnc(-c6ccc[nH]6)[nH]5)CC4)cc3)nc3sccn23)cc1 [Example 109]    < 10 µM

----------
IC50 data for A549 cells follow.
outcome_measure: IC50

COc1ccn2c(-c3ccccc3)c(-c3ccc(CN4CCC(c5nnc(-c6cccc(C)n6)[nH]5)CC4)cc3)nc2c1    < 10 µM
N#Cc1cccn2c(-c3ccccc3)c(-c3ccc(CN4CCC(c5nnc(-c6cccs6)[nH]5)CC4)cc3)nc12    > 10 µM
N#Cc1cccn2c(-c3ccccc3)c(-c3ccc(CN4CCC(c5nnc(-c6ccncc6)[nH]5)CC4)cc3)nc12    < 10 µM
Cc1ccc(-c2nnc(C3CCN(Cc4ccc(-c5nc6c(C#N)cccn6c5-c5ccccc5)cc4)CC3)[nH]2)nc1    < 10 µM
N#Cc1cccn2c(-c3ccccc3)c(-c3ccc(CN4CCC(c5nnc(-c6ccc[nH]6)[nH]5)CC4)cc3)nc12    < 10 µM

----------
# Test system: A549 cells
# assay_info: Cellular proliferation/cytotoxicity assay (Alamar Blue), A549 cells
# run_parameters: read-out: Anti-proliferative/Cytotoxic activity (A549 cells); A549 cells, 72 h, Alamar Blue (Resazurin)
pIC50: −log10 of the molar value.
Entries annotated with measured pIC50
outcome_measure: pIC50

N#Cc1cccn2c(-c3ccccc3)c(-c3ccc(CN4CCC(c5nnc(-c6ccco6)[nH]5)CC4)cc3)nc12    < 5.00
c1ccc(-c2c(-c3ccc(CN4CCC(c5nnc(-c6cccs6)[nH]5)CC4)cc3)nc3sccn23)cc1    > 5.00
c1ccc(-c2c(-c3ccc(CN4CCC(c5n[nH]c(-c6nccs6)n5)CC4)cc3)nc3ncccn23)cc1    < 5.00
c1ccc(-c2c(-c3ccc(CN4CCC(c5cc(-c6ccccn6)[nH]n5)CC4)cc3)nc3scnn23)cc1    > 5.00
N#Cc1ccn2c(-c3ccccc3)c(-c3ccc(CN4CCC(c5nnc(-c6nccs6)[nH]5)CC4)cc3)nc2c1    > 5.00
Cc1ccc(-c2nnc(C3CCN(Cc4ccc(-c5nc6cc(C#N)ccn6c5-c5ccccc5)cc4)CC3)[nH]2)nc1    > 5.00
c1ccc(-c2c(-c3ccc(CN4CCC(c5n[nH]c(-c6ccncc6)n5)CC4)cc3)nc3ncccn23)cc1    < 5.00
Cc1ccc(-c2nnc(C3CCN(Cc4ccc(-c5nc6sccn6c5-c5ccccc5)cc4)CC3)[nH]2)nc1    > 5.00
c1ccc(-c2c(-c3ccc(CN4CCC(c5nnc(-c6ccco6)[nH]5)CC4)cc3)nc3ccccn23)cc1    > 5.00
c1ccc(-c2c(-c3ccc(CN4CCC(c5noc(-c6ccccn6)n5)CC4)cc3)nc3ncccn23)cc1    > 5.00
N#Cc1ccn2c(-c3ccccc3)c(-c3ccc(CN4CCC(c5noc(-c6ccccn6)n5)CC4)cc3)nc2c1    < 5.00
c1ccc(-c2c(-c3ccc(CN4CCC(c5nnc(-c6ccco6)[nH]5)CC4)cc3)nc3scnn23)cc1    > 5.00
O=C(O)c1cn2c(-c3ccccc3)c(-c3ccc(CN4CCC(c5nnc(-c6ccccn6)[nH]5)CC4)cc3)nc2s1    < 5.00
N#Cc1cccn2c(-c3ccccc3)c(-c3ccc(CN4CCC(c5nnc(-c6nccs6)[nH]5)CC4)cc3)nc12    < 5.00
COc1nccn2c(-c3ccccc3)c(-c3ccc(CN4CCC(c5nnc(-c6cccc(C)n6)[nH]5)CC4)cc3)nc12    > 5.00
Clc1ccc(-c2nnc(C3CCN(Cc4ccc(-c5nc6ncccn6c5-c5ccccc5)cc4)CC3)[nH]2)nc1    > 5.00
c1ccc(-c2c(-c3ccc(CN4CCC(c5cc(-c6ccccn6)n[nH]5)CC4)cc3)nc3ccccn23)cc1    > 5.00
Cc1cccc(-c2nnc(C3CCN(Cc4ccc(-c5nc6sccn6c5-c5ccccc5)cc4)CC3)[nH]2)n1    > 5.00
Cc1ccc2nc(-c3ccc(CN4CCC(c5nnc(-c6ccco6)[nH]5)CC4)cc3)c(-c3ccccc3)n2n1    > 5.00
N#Cc1cc2nc(-c3ccc(CN4CCC(c5nnc(-c6ccccn6)[nH]5)CC4)cc3)c(-c3ccccc3)n2cc1Br    < 5.00
c1ccc(-c2c(-c3ccc(CN4CCC(c5nnc(-c6nccs6)[nH]5)CC4)cc3)nc3sccn23)cc1    > 5.00
Cc1ccc2nc(-c3ccc(CN4CCC(c5nnc(-c6ccc[nH]6)[nH]5)CC4)cc3)c(-c3ccccc3)n2n1    > 5.00
c1ccc(-c2c(-c3ccc(CN4CCC(c5n[nH]c(-c6nccs6)n5)CC4)cc3)nc3scnn23)cc1    > 5.00
Cc1cccc(-c2nnc(C3CCN(Cc4ccc(-c5nc6scnn6c5-c5ccccc5)cc4)CC3)[nH]2)n1    > 5.00
